Target: α-amylase (porcine pancreas source) (Sus scrofa, UniProt P00690)
Construct: A porcine pancreas source of α-amylase (50 µL), 25 µL of the samples; from tissue; host or cells: porcine pancreas
Sequence (P00690 16-511): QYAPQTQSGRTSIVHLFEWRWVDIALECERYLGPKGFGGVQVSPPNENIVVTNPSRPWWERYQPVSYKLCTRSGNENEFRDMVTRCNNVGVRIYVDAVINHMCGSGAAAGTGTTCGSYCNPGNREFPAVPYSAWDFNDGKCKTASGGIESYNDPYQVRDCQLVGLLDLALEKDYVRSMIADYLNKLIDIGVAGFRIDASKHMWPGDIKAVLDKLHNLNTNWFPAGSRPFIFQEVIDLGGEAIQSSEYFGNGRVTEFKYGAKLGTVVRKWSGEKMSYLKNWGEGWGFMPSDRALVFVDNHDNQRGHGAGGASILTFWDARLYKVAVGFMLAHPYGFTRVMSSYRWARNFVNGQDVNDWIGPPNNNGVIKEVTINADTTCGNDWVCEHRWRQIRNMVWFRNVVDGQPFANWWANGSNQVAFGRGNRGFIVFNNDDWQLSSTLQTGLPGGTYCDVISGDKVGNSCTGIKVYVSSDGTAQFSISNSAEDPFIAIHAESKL
Test: α-Amylase inhibitory assay (starch iodine protocol)
Type: biochemical
OBSERVABLE: pIC50
Here pIC50 is given on a logarithmic scale as minus log10 of the concentration in mol/L.

Here is how some compounds turned out for pIC50.
COc1cc2c(=O)oc3c(OC)c(O[C@@H]4O[C@H](CO)[C@@H](O)[C@H](O)[C@H]4O)cc4c(=O)oc(c1OC)c2c34
3.66
CC1OC(Oc2c(-c3cc(O)c(O)c(O)c3)oc3cc(O)cc(O)c3c2=O)C(O)C(O)C1O (centres unmarked) [Compound 5, myricetin-3-O-rhamnoside]
3.85

Query compound follows.
## Task Would you mind telling me what pIC50 value was observed for COc1c(O)cc2c(=O)oc3c(OC)c(O)cc4c(=O)oc1c2c34 ?
## Result 3.69

====

molecular target: α-glucosidase (fungal source from Saccharomyces cerevisiae); assay: α-Glucosidase inhibitory assay (PNPG); type: biochemical; settings: maximum concentration 200 µg/mL; means ± SEM of three measurements
α-Glucosidase IC50 for assorted compounds

Here is how some compounds turned out for α-Glucosidase IC50.
CC1OC(Oc2c(-c3cc(O)c(O)c(O)c3)oc3cc(O)cc(O)c3c2=O)C(O)C(O)C1O (centres unmarked) [Compound 5, myricetin-3-O-rhamnoside]
69.02 ± 0.65 µg/mL
CC1(C)CCC2(C(=O)OC3OC(CO)C(O)C(O)C3O)CCC3(C)C(=CCC4C5(C)CC(O)C(O)C(C)(C)C5CCC43C)C2C1O (centres unmarked) [Compound 9, 24-deoxysericoside]
>200 µg/mL
CC1(C)CC[C@]2(C(=O)O)CC[C@]3(C)C(=CC[C@@H]4[C@@]5(C)C[C@@H](O)[C@H](O)[C@@](C)(CO)[C@@H]5[C@H](O)C[C@]43C)[C@@H]2C1
155.84 ± 0.31 µg/mL
COc1cc2c(=O)oc3c(OC)c(O[C@@H]4O[C@H](CO)[C@@H](O)[C@H](O)[C@H]4O)cc4c(=O)oc(c1OC)c2c34
137.51 ± 0.81 µg/mL

Query compound follows.
## Task Would you mind telling me what α-Glucosidase IC50 value was observed for CC1(C)CC[C@]2(C(=O)O[C@@H]3O[C@H](CO)[C@@H](O)[C@H](O)[C@H]3O)CC[C@]3(C)C(=CC[C@@H]4[C@@]5(C)C[C@@H](O)[C@H](O)[C@@](C)(CO)[C@@H]5[C@H](O)C[C@]43C)[C@@H]2C1 [Compound 11, chebuloside II] ?
## Result >200 µg/mL
